B1: Protein PTHB1 (Homo sapiens), Q3SYG4 (parent)
chain: MSLFKARDWWSTILGDKEEFDQGCLCLANVDNSGNGQDKIIVGSFMGYLRIFSPHPAKTGDGAQAEDLLLEVDLRDPVLQVEVGKFVSGTEMLHLAVLHSRKLCVYSVSGTLGNVEHGNQCQMKLMYEHNLQRTACNMTYGSFGGVKGRDLICIQSMDGMLMVFEQESYAFGRFLPGFLLPGPLAYSSRTDSFLTVSSCQQVESYKYQVLAFATDADKRQETEQQKLGSGKRLVVDWTLNIGEQALDICIVSFNQSASSVFVLGERNFFCLKDNGQIRFMKKLDWSPSCFLPYCSVSEGTINTLIGNHNNMLHIYQDVTLKWATQLPHIPVAVRVGCLHDLKGVIVTLSDDGHLQCSYLGTDPSLFQAPNVQSRELNYDELDVEMKELQKIIKDVNKSQGVWPMTEREDDLNVSVVVSPNFDSVSQATDVEVGTDLVPSVTVKVTLQNRVILQKAKLSVYVQPPLELTCDQFTFEFMTPDLTRTVSFSVYLKRSYTPSELEGNAVVSYSRPTDRNPDGIPRVIQCKFRLPLKLICLPGQPSKTASHKITIDTNKSPVSLLSLFPGFASQSDDDQVNVMGFHFLGGARITVLASKTSQRYRIQSEQFEDLWLITNELILRLQEYFEKQGVKDFACSFSGSIPLQEYFELIDHHFELRINGEKLEELLSERAVQFRAIQRRLLARFKDKTPAPLQHLDTLLDGTYKQVIALADAVEENQGNLFQSFTRLKSATHLVILLIALWQKLSADQVAILEAAFLPLQEDTQELGWEETVDAAISHLLKTCLSKSSKEQALNLNSQLNIPKDTSQLKKHITLLCDRLSKGGRLCLSTDAAAPQTMVMPGGCTTIPESDLEERSVEQDSTELFTNHRHLTAETPRPEVSPLQGVSE
partner: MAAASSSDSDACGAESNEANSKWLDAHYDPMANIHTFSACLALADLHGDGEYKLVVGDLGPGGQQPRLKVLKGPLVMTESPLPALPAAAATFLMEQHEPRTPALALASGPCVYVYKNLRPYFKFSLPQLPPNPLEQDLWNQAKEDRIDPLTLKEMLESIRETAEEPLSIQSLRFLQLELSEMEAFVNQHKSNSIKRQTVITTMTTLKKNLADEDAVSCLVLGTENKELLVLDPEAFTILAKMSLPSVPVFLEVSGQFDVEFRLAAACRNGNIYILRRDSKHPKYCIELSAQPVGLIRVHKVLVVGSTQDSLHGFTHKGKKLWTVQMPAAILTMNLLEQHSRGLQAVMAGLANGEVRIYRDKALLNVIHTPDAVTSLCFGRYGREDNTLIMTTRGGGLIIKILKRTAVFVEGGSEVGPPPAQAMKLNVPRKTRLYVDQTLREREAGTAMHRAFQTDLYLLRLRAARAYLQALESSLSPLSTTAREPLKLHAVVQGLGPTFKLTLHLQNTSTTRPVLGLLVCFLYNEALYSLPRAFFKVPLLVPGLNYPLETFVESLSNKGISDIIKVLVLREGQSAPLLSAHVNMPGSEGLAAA

Variants of: B1
Details: with bbs1_human BBS1, Q8NFJ9
OUTCOME MEASURE: effect of a mutation on the interaction

L827A    with no effect
D517E    with no effect
R656K    with no effect
D700E    with no effect
T763A    with no effect
Q677K    with no effect
M477K    with no effect
S541E    with no effect
S494A    with no effect
I776A    with no effect
S820A    with no effect
V437E    with no effect
Q791A    with no effect
R683E    with no effect
P564K    with no effect
I801E    with no effect
D572A    with no effect
T428K    with no effect
G823E    with no effect
D747A    with no effect
V417K    with no effect
